Values compiled from patent US20250250357A1.

In this section, each of the binders is paired with its reported OD450.
- systemTested: T1, human MSLN-FL-his protein (human, UniProt Q13421 296-580)
- T1 construct: also called hMSLN-FL-his; human MSLN full-length protein; not shown: His tag
- T1 sequence (Q13421 other isoform, or with tags, fused parts or gaps): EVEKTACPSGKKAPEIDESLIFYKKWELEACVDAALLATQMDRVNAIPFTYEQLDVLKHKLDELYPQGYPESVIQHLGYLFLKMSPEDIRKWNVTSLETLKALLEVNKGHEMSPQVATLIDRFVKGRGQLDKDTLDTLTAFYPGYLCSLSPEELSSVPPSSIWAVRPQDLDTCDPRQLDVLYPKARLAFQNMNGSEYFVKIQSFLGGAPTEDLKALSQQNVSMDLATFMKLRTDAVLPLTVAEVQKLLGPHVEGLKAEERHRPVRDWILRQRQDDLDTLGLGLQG
- protocolText: ELISA, coated antigen; antibody 0.0001 nM
reportedEndpoint: OD450

• S009-F1.35.24 human-murine chimeric antibody (antibody, human IgG1, kappa, V domains shown, Chimeric IgG1/kappa) VH: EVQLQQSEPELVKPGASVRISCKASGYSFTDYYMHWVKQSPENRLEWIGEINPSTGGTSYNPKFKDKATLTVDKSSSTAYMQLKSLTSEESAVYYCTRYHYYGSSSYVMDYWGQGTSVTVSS VL: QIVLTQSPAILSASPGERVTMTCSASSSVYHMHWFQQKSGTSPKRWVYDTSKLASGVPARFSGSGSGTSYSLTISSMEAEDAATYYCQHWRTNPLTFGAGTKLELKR = 0.06
• S009-F1.2.12 human-murine chimeric antibody (antibody, human IgG1, kappa, V domains shown, Chimeric IgG1/kappa) VH: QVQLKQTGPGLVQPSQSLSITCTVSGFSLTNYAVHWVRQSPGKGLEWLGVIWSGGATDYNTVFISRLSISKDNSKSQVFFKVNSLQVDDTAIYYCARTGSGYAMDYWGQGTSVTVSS VL: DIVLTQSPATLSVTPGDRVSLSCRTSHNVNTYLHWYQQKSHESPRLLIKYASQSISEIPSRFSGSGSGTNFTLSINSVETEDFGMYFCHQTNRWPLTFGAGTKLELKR = 0.06
• S009-F1.56.1 human-murine chimeric antibody (antibody, human IgG1, kappa, V domains shown, Chimeric IgG1/kappa) VH: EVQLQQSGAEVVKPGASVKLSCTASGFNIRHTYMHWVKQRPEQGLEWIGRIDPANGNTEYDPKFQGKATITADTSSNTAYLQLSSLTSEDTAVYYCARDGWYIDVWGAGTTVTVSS VL: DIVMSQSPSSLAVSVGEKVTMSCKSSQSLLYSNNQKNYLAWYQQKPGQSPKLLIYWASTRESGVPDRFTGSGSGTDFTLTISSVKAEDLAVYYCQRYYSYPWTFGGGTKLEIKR = 0.05
• S009-F1.59.1 human-murine chimeric antibody (antibody, human IgG1, kappa, V domains shown, Chimeric IgG1/kappa) VH: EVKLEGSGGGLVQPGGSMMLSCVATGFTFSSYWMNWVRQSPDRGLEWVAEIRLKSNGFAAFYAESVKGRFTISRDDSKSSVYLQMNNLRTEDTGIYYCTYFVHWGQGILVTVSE VL: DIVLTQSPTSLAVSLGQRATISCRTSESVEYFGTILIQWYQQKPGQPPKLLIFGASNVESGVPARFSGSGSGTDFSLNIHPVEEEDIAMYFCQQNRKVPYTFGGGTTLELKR = 0.06
• S009-F1.62.9 human-murine chimeric antibody (antibody, human IgG1, kappa, V domains shown, Chimeric IgG1/kappa) VH: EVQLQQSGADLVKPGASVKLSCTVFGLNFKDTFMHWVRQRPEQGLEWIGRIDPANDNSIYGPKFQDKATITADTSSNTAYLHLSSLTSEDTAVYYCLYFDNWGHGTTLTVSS VL: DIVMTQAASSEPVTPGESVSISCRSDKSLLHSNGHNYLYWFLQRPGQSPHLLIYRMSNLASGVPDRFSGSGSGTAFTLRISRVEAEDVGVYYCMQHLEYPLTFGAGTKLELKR = 0.06
• S009-F1.57.1 human-murine chimeric antibody (antibody, human IgG1, kappa, V domains shown, Chimeric IgG1/kappa) VH: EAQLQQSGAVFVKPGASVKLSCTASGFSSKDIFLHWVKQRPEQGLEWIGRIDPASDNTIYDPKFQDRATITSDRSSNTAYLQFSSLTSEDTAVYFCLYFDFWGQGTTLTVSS VL: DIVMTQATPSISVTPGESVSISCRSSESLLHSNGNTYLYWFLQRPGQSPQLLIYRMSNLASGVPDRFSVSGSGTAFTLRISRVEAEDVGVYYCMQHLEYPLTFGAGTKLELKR = 0.05
• S009-F1.25.10 human-murine chimeric antibody (antibody, human IgG1, kappa, V domains shown, Chimeric IgG1/kappa) VH: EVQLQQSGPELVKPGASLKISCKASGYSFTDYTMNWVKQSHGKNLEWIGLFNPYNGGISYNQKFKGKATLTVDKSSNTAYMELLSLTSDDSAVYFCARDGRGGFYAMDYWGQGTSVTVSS VL: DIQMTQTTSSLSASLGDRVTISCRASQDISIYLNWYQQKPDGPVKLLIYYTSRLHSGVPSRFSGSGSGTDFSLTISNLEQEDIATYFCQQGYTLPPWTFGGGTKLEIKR = 0.06
